- tested_target: UniProt:O00444
- experiment_notes: PLK4 NanoBRET target engagement assay
- test_parameters: HEK293 T cells transfected with PLK4 NanoLuc fusion vector; K-5 tracer; 2 hrs incubation
- Procedure: To determine the affinity of Compounds described herein in the PLK4 NanoBRET target engagement assay, HEK293 T cells (ATCC Product Number CRL-3216) are first transfected with the PLK4 NanoLuc fusion vector DNA and Transfection carrier DNA using the Fugene HD Transfection reagent in Opti-MEM No Phenol Red buffer. […] The plate is then transferred in the Envision plate reader where the Acceptor emission (610 nm) and the Donor emission (450 nm) are measured. […]
measured_metric: IC50 (µM)

>  <structure_string>
Cc1cc(Nc2nc(N(C)c3ccc(S(C)(=O)=O)cc3C)nc(-c3cnn(C)c3)c2C2CC2)n[nH]1

>  <tested_target>
UniProt:O00444

>  <measured_metric>
IC50

>  <output_unit>
µM

>  <relation_qualifier>
=

>  <obs_value>
0.13

$$$$
>  <structure_string>
Cc1cc(Nc2nc(N(C)c3c(F)cc(S(C)(=O)=O)cc3Cl)nc(-c3cnn(C)c3)c2C2CC2)n[nH]1

>  <tested_target>
UniProt:O00444

>  <measured_metric>
IC50

>  <output_unit>
µM

>  <relation_qualifier>
>

>  <obs_value>
5

$$$$
>  <structure_string>
Cc1cc(Nc2nc(N(C)c3ccc(S(=O)(=O)C(C)(C)C)cc3)nc(-c3cnn(C)c3)c2C2CC2)n[nH]1

>  <tested_target>
UniProt:O00444

>  <measured_metric>
IC50

>  <output_unit>
µM

>  <relation_qualifier>
=

>  <obs_value>
0.065

$$$$
>  <structure_string>
COc1c(Nc2cc(C)[nH]n2)nc(N(C)c2ccc(S(C)(=O)=O)c(Cl)c2F)nc1-c1cnn(C)c1

>  <tested_target>
UniProt:O00444

>  <measured_metric>
IC50

>  <output_unit>
µM

>  <relation_qualifier>
=

>  <obs_value>
0.22

$$$$
>  <structure_string>
Cc1cc(Nc2nc(N(C)c3c(F)cc(S(C)(=O)=O)cc3F)nc(-c3ncn(C)c3C#N)c2C2CC2)n[nH]1

>  <tested_target>
UniProt:O00444

>  <measured_metric>
IC50

>  <output_unit>
µM

>  <relation_qualifier>
=

>  <obs_value>
0.36

$$$$
>  <structure_string>
CNC(=O)c1c(-c2nc(N(C)c3c(F)cc(S(C)(=O)=O)cc3F)nc(Nc3cc(C)[nH]n3)c2C2CC2)cnn1C

>  <tested_target>
UniProt:O00444

>  <measured_metric>
IC50

>  <output_unit>
µM

>  <relation_qualifier>
=

>  <obs_value>
0.008

$$$$
>  <structure_string>
Cc1cc(Nc2nc(N(C)c3c(F)cc(S(C)(=O)=O)cc3F)nc(-c3cn(C4CC4)cn3)c2C2CC2)n[nH]1

>  <tested_target>
UniProt:O00444

>  <measured_metric>
IC50

>  <output_unit>
µM

>  <relation_qualifier>
=

>  <obs_value>
0.004

$$$$

====

- tested_target: PLK4 (Homo sapiens, UniProt O00444)
- Sequence (O00444 whole entry): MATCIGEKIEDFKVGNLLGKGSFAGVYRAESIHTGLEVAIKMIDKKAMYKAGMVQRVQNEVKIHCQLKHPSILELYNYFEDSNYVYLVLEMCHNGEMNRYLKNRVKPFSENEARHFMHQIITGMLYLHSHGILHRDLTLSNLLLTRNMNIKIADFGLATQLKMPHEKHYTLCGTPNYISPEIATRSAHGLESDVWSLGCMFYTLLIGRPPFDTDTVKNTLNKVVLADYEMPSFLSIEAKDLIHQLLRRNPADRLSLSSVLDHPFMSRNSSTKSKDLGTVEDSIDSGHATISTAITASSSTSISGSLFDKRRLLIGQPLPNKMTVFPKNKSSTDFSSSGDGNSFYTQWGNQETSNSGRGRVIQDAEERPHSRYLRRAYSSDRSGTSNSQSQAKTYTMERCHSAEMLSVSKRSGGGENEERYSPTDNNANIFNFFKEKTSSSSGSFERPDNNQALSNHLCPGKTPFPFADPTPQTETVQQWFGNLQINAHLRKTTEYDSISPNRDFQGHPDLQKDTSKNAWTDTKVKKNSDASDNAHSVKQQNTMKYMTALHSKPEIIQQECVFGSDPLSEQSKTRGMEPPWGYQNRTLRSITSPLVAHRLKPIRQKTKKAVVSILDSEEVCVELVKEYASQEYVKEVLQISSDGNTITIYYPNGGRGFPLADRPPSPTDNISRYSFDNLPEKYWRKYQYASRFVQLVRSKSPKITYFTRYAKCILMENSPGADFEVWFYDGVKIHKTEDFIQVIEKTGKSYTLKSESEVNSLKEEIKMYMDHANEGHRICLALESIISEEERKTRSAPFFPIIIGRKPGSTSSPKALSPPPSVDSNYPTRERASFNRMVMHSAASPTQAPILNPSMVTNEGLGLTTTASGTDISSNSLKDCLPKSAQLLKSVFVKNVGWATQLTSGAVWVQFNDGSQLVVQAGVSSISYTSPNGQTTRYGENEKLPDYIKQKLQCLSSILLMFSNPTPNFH
- experiment_notes: PLK4 NanoBRET target engagement assay
- test_parameters: HEK293 T cells transfected with PLK4 NanoLuc fusion vector; K-5 tracer; 2 hrs incubation
pIC50: −log10 of the molar value.
measured_metric: pIC50

>  <molecule>
COc1c(Nc2cc(C)[nH]n2)nc(N(Cc2ccc(F)cc2)c2ccc(S(C)(=O)=O)cc2F)nc1-c1cnn(C)c1

>  <relation_qualifier>
=

>  <obs_value>
6.14

$$$$
>  <molecule>
Cc1cc(Nc2nc(N(C)c3ccc(S(C)(=O)=O)cc3F)nc(-c3cn(C)cn3)c2C2CC2)n[nH]1

>  <relation_qualifier>
=

>  <obs_value>
7.70

$$$$
>  <molecule>
Cc1cc(Nc2nc(N(C)c3c(F)cc(C(=O)N(C)C)cc3F)nc(-c3cn(C)cn3)c2C2CC2)n[nH]1

>  <relation_qualifier>
=

>  <obs_value>
6.72

$$$$
>  <molecule>
Cc1cc(Nc2nc(N(C)c3ccc(S(C)(=O)=O)cc3F)nc(-c3ccn(C)n3)c2C(C)C)n[nH]1

>  <relation_qualifier>
<

>  <obs_value>
5.30

$$$$
>  <molecule>
Cc1cc(Nc2nc(N(C)c3c(F)cc(S(C)(=O)=O)cc3F)nc(-c3cn(C)c(C(C)O)n3)c2C2CC2)n[nH]1 (stereo not shown)

>  <relation_qualifier>
=

>  <obs_value>
7.72

$$$$
>  <molecule>
COc1c(Nc2cc(C)[nH]n2)nc(N(C)c2ccc(S(C)(=O)=O)c(F)c2F)nc1-c1cnn(C)c1

>  <relation_qualifier>
=

>  <obs_value>
7.27

$$$$
>  <molecule>
Cc1cc(-c2nc(N(C)c3c(F)cc(S(C)(=O)=O)cc3F)nc(Nc3cc(C)[nH]n3)c2C2CC2)cnn1

>  <relation_qualifier>
=

>  <obs_value>
7.62

$$$$

====

- tested_target: PLK4 (Homo sapiens)
- experiment_notes: PLK4 NanoBRET target engagement assay
- test_parameters: HEK293 T cells transfected with PLK4 NanoLuc fusion vector; K-5 tracer; 2 hrs incubation
pIC50: −log10 of the molar value.
List of pIC50 values.

>  <compound>
Cc1cc(Nc2nc(N(C)c3c(F)cc(S(C)(=O)=O)cc3F)nc(-c3cnn(C)c3N(C)C)c2C2CC2)n[nH]1 [Compound 320]

>  <pIC50>
8.40

$$$$
>  <compound>
Cc1cc(Nc2nc(N(C)c3c(F)cc(S(=O)(=O)C4CC4)cc3F)nc(-c3cn(C)cn3)c2C2CC2)n[nH]1 [Compound 347]

>  <pIC50>
8.30

$$$$
>  <compound>
Cc1cn(-c2nc(N(C)c3ccc(S(C)(=O)=O)cc3F)nc(Nc3cc(C)[nH]n3)c2C2CC2)cn1 [Compound 107]

>  <pIC50>
6.92

$$$$
>  <compound>
COc1c(Nc2cc(C)[nH]n2)nc(N(C)c2ccc(-c3nnc(C)o3)cc2)nc1-c1cnn(C)c1 [Compound 72]

>  <pIC50>
6.09

$$$$
>  <compound>
COc1c(Nc2cc(C)[nH]n2)nc(Sc2ccc(S(C)(=O)=O)cc2F)c(C)c1-c1cnn(C)c1 [Compound 22]

>  <pIC50>
7.02

$$$$
>  <compound>
Cc1cc(Nc2nc(N(C)c3c(F)cc(S(C)(=O)=O)cc3F)nc(-c3cn(C)c(C4(O)CCC4)n3)c2C2CC2)n[nH]1 [Compound 322]

>  <pIC50>
7.92

$$$$
>  <compound>
Cc1cc(Nc2nc(N(C)c3c(F)cc(S(C)(=O)=O)cc3F)nc(-c3cn(C)nc3CC#N)c2C2CC2)n[nH]1 [Compound 329]

>  <pIC50>
8.40

$$$$
>  <compound>
Cc1cc(Nc2nc(N(C)c3c(F)cc(Br)cc3F)nc(-c3cn(C)cn3)c2C2CC2)n[nH]1 [Compound 335]

>  <pIC50>
7.37

$$$$
>  <compound>
Cc1cc(Nc2nc(N(C)c3c(F)cc(S(C)(=O)=O)cc3F)nc(-c3cc4[nH]c(=O)ccn4n3)c2C2CC2)n[nH]1 [Compound 286]

>  <pIC50>
7.62

$$$$
>  <compound>
CCN(c1nc(Nc2cc(C)[nH]n2)c(OC)c(-c2cnn(C)c2)n1)c1ccc(S(C)(=O)=O)cc1F [Compound 3]

>  <pIC50>
7.17

$$$$
>  <compound>
COc1c(Nc2cc(C)[nH]n2)nc(N(C)c2ccc(Br)cc2F)nc1-c1cnn(C)c1 [Compound 75]

>  <pIC50>
6.22

$$$$
>  <compound>
COc1c(Nc2cc(C)[nH]n2)nc(Oc2ccc(S(C)(=O)=O)cc2Br)nc1-c1cnn(C)c1 [Compound 33]

>  <pIC50>
5.96

$$$$
>  <compound>
Cc1cc(Nc2nc(N(C)c3cc(F)c(S(C)(=O)=O)cc3F)nc(-c3cn(C(C)C)cn3)c2C2CC2)n[nH]1 [Compound 200]

>  <pIC50>
8.10

$$$$
>  <compound>
Cc1cc(Nc2nc(N(C)c3c(F)cc(S(C)(=O)=O)cc3F)nc(-c3cc(C(F)F)n(C)n3)c2C2CC2)n[nH]1 [Compound 163]

>  <pIC50>
7.96

$$$$

====

Measured IC50 by item
- tested_target: PLK4 (Homo sapiens)
- experiment_notes: PLK4 NanoBRET target engagement assay
- test_parameters: HEK293 T cells transfected with PLK4 NanoLuc fusion vector; K-5 tracer; 2 hrs incubation

>  <structure_string>
Cc1cc(Nc2nc(N(C)c3c(F)cc(S(C)(=O)=O)cc3F)nc(-c3cn(CCF)c(C)n3)c2C2CC2)n[nH]1

>  <IC50>
3 nM

$$$$
>  <structure_string>
COCCn1ncc(-c2nc(N(C)c3ccc(S(C)(=O)=O)cc3F)nc(Nc3cc(C)[nH]n3)c2C2CC2)c1C

>  <IC50>
38 nM

$$$$
>  <structure_string>
Cc1cc(Nc2nc(N(C)c3c(F)cc(S(C)(=O)=O)cc3F)nc(-c3cnn(C)c3N3CCOC3=O)c2C2CC2)n[nH]1

>  <IC50>
4 nM

$$$$
>  <structure_string>
COCCn1ncc(-c2nc(N(C)c3c(F)cc(S(C)(=O)=O)cc3F)nc(Nc3cc(C4CC4)[nH]n3)c2C2CC2)c1C

>  <IC50>
3 nM

$$$$

Source listed as patent US20250177396A1.
